- assayOverview: Inhibition of porcine kidney TNAP assessed as para nitrophenylphosphate conversion to p-nitrophenolate at pH 7.8 incubated for 10 mins prior to substrate addition measured after 5 seconds by spectrophotometric analysis
- Design: species or system Sus scrofa
pIC50: −log10 of the molar value.
Measured pIC50 values are reported for all entries that follow.

# compound, pIC50
records = [
    ("Cl.Nc1ccc2sc(C3CN4C=CSC4=N3)cc2c1 (racemic)", 4.74),
    ("c1ccc([C@H]2CN3CCSC3=N2)cc1", 4.63),
    ("C1=CN2CC(c3cc4ccccc4s3)N=C2S1.Cl (racemic)", 5.36),
    ("Cl.c1ccc2sc(C3CN4CCSC4=N3)cc2c1 (racemic)", 5.26),
    ("Cl.O=[N+]([O-])c1ccc2sc(C3CN4C=CSC4=N3)cc2c1 (racemic)", 5.68),
]

* * *

- assayOverview: Uncompetitive inhibition of porcine kidney TNAP assessed as para nitrophenylphosphate conversion to p-nitrophenolate at pH 7.8 by Michaelis-Menten plot analysis
- Parameters: species or system Sus scrofa
pKi: −log10 of the molar value.
Rule: pKi under 5 gives n, otherwise y.

# compound, className
data = [
    ("Cl.O=[N+]([O-])c1ccc2sc(C3CN4C=CSC4=N3)cc2c1 (racemic)", "y"),
    ("Cl.c1ccc2sc(C3CN4CCSC4=N3)cc2c1 (racemic)", "y"),
    ("c1ccc([C@H]2CN3CCSC3=N2)cc1 [LEVAMISOLE]", "n"),
    ("C1=CN2CC(c3cc4ccccc4s3)N=C2S1.Cl (racemic)", "y"),
]

* * *

- Test system: SAOS-2
- assayOverview: Reduction in beta-glycerophosphate-induced mineralization in human Saos2 cells at 10 uM after 7 days by Alizarin Red S staining-based assay relative to control
- Format: functional
- Parameters: scale not given: the % may be the effect or the level left
Active and inactive are the calls of the source. The calls are words filed in the database; no cut-off is given here.
assayMetric: Activity

# molecule, assayMetric, reportedValue
records = [
    ("Cl.O=[N+]([O-])c1ccc2sc(C3CN4C=CSC4=N3)cc2c1 (racemic)", "Activity", "25%"),
    ("Cl.Nc1ccc2sc(C3CN4C=CSC4=N3)cc2c1 (racemic)", "Activity", "Active"),
    ("c1ccc([C@H]2CN3CCSC3=N2)cc1", "Activity", "33%"),
    ("C1=CN2CC(c3cc4ccccc4s3)N=C2S1.Cl (racemic)", "Activity", "Active"),
    ("Cl.c1ccc2sc(C3CN4CCSC4=N3)cc2c1 (racemic)", "Activity", "Active"),
]

* * *

- assayOverview: Solubility of the compound
assayMetric: solubility (mM)

# compound, assayMetric, reportedValue
data = [
    ("c1ccc([C@H]2CN3CCSC3=N2)cc1 [LEVAMISOLE]", "solubility", 200),
]

* * *

Measured solubility values are reported for all entries that follow.
- assayOverview: Solubility of the compound in water by UV spectrometric analysis
- Type: physicochemical
assayMetric: solubility (µM)

# molecule, reportedValue
measured = [
    ("Cl.c1ccc2sc(C3CN4CCSC4=N3)cc2c1 (racemic)", 450),
    ("Cl.Nc1ccc2sc(C3CN4C=CSC4=N3)cc2c1 (racemic)", 1770),
    ("C1=CN2CC(c3cc4ccccc4s3)N=C2S1.Cl (racemic)", 1300),
    ("Cl.O=[N+]([O-])c1ccc2sc(C3CN4C=CSC4=N3)cc2c1 (racemic)", 6900),
]
